System: GT3TKB;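 note: growth inhibition of the cell line, read out with a cell viability assay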
Assay: cells
Format: functional, cell-based, Homo sapiens
Settings: gt3tkb
Description: SANGER: Inhibition of human GT3TKB cell growth in a cell viability assay.
pIC50: −log10 of the molar value. Where a SMILES comes first, the peptide text is derived from it. The star is where a group is joined. Cbz = O=C(OCc1ccccc1)*
Endpoint Name: pIC50

**Q:** # lookup: pIC50 of CC(C)C[C@@H](C=O)NC(=O)[C@H](CC(C)C)NC(=O)[C@H](CC(C)C)NC(=O)OCc1ccccc1 [MG-132] (Cbz-Leu-Leu-Leu-aldehyde)
**A:** < 6.00

* * *

Tested on: SW684;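 note: growth inhibition of human SW684 cells, measured by a cell viability assay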
Assay: cells
Type: functional, cell-based, Homo sapiens
Details: sw684; read-out: IC50
Description: SANGER: Inhibition of human SW684 cell growth in a cell viability assay.
Where a SMILES comes first, the peptide text is derived from it. The star is where a group is joined. Cbz = O=C(OCc1ccccc1)*
Endpoint Name: IC50

**Q:** # lookup: IC50 of CC(C)C[C@@H](C=O)NC(=O)[C@H](CC(C)C)NC(=O)[C@H](CC(C)C)NC(=O)OCc1ccccc1 [MG-132] (Cbz-Leu-Leu-Leu-aldehyde)
**A:** > 1000 nM

The reported measurements were obtained from ChEMBL document CHEMBL1201861.
